experimental system: OsWRKY34 (Oryza sativa, UniProt Q0JBA9 1-250)
Sequence (Q0JBA9 entry or part of it): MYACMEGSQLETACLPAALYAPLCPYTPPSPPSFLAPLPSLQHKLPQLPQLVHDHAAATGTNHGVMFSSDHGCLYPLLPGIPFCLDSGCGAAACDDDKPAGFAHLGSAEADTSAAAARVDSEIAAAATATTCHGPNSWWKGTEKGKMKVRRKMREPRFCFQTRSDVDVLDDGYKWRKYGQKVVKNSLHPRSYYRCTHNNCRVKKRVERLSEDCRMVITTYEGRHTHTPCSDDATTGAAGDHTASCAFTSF
method: protein-binding microarray (RPBM); PBS, 2% BSA, 51.3 ng/ul salmon testes DNA, 50 uM zinc acetate, 200 nM TF, 25 C, 1 h; high values mean tight binding
test context: protein: recombinant; tags: N-terminal polyhistidine and DsRed monomer fusion (pET32a); label: CyDye5-dUTP incorporated in the synthesized complementary strand; 3' TTTTT single-stranded linker to array surface; dsDNA, one strand shown
The full ranking holds about 68,000 sequences; the median of “fluorescence intensity (a.u.)” is about 9,100, and the highest 2% start at about 16,000. Shown is part of a subset that was picked to be rich in the highest values.
Items are presented alongside their recorded binding signal.

// known answers, use as guide
[
  {
    "biosequence": "GATGGCCTTGACCATGCAGAAACAGGCATGGTTTCCTTCGCGGAGTCACCTAGTGCAG",
    "binding signal": "64500 fluorescence intensity (a.u.)"
  },
  {
    "biosequence": "ATTGGATCGGATCAGATCCCTTTTGCGCACCACTCGCCTTCGGAGTCACCTAGTGCAG",
    "binding signal": "8750 fluorescence intensity (a.u.)"
  }
]

Next:
Query: Returns the measured binding signal for the input sequence. Input: `TTATAACATCTCTAGCTTCCTTTTCTAACCGTTTAACTTTCGGAGTCACCTAGTGCAG`
Response: 8410 fluorescence intensity (a.u.)
